# target_under_test: UniProtKB Q92731
# Sequence (Q92731 whole entry, species assumed): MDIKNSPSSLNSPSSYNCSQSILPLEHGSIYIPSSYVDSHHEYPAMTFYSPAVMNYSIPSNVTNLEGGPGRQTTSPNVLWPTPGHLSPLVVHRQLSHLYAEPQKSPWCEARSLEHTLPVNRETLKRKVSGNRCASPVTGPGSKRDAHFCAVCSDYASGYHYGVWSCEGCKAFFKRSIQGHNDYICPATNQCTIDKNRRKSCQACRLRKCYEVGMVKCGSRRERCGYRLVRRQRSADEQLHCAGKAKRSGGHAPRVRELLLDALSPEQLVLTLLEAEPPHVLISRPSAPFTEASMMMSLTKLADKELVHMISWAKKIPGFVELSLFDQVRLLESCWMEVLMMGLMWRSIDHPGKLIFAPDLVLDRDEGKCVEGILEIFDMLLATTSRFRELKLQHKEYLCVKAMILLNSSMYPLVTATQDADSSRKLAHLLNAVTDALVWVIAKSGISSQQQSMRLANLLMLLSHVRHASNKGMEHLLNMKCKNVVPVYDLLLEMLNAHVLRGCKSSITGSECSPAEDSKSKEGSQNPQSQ
# assay_info: Receptor binding assay for estrogen receptor beta
# study_conditions: Table 5
Peptide text beside a SMILES is read from it.
readout_name: IC50 to ERβ

Examples from the recorded data:
- molecule: "NCCCC[C@H](N)C(=O)N[C@@H](CO)C(=O)N[C@@H](Cc1c[nH]c2ccccc12)C(=O)N[C@@H](Cc1ccccc1)C(=O)N[C@@H](Cc1ccccc1)C(=O)N[C@@H](CCC(=O)O)C(=O)O [Peptide 19, KSWFFE] (H-KSWFFE-OH; N-terminus and C-terminus assumed)"
  IC50 to ERβ: "None"
- molecule: "CC(C)[C@H](N)C(=O)N1CCC[C@H]1C(=O)N[C@@H](Cc1c[nH]c2ccccc12)C(=O)N[C@@H](Cc1ccccc1)C(=O)N[C@@H](Cc1ccccc1)C(=O)N[C@@H](CCC(=O)O)C(=O)O [Peptide B33, VPWFFE] (H-VPWFFE-OH; N-terminus and C-terminus assumed)"
  IC50 to ERβ: "None"
- molecule: "CC(C)C[C@H](NC(=O)[C@H](C)NC(=O)[C@@H]1CCCN1C(=O)[C@@H](N)CC(C)C)C(=O)N[C@@H](CC(=O)O)C(=O)N1CCC[C@H]1C(=O)N[C@H](C(=O)N[C@@H](CCCCN)C(=O)N[C@@H](CCCNC(=N)N)C(=O)N[C@@H](Cc1c[nH]c2ccccc12)C(=O)N[C@@H](Cc1ccccc1)C(=O)N[C@@H](Cc1ccccc1)C(=O)N[C@@H](CCC(=O)O)C(=O)N[C@H](C(=O)N[C@@H](CCCCN)C(=O)O)[C@@H](C)O)[C@@H](C)O [Peptide 1] (H-LPALDPTKRWFFETK-OH; N-terminus and C-terminus assumed)"
  IC50 to ERβ: "none"
- molecule: "CC(C)C[C@H](N)C(=O)N[C@@H](CCCNC(=N)N)C(=O)N[C@@H](Cc1c[nH]c2ccccc12)C(=O)N[C@@H](Cc1ccccc1)C(=O)N[C@@H](Cc1ccccc1)C(=O)N[C@@H](CCC(=O)O)C(=O)O [Peptide B38, LRWFFE] (H-LRWFFE-OH; N-terminus and C-terminus assumed)"
  IC50 to ERβ: "None"
- molecule: "CC(C)[C@H](N)C(=O)N[C@@H](CCCNC(=N)N)C(=O)N[C@@H](Cc1c[nH]c2ccccc12)C(=O)N[C@@H](Cc1ccccc1)C(=O)N[C@@H](Cc1ccc(O)cc1)C(=O)N[C@@H](CCC(=O)O)C(=O)O [Peptide B35, VRWFYE] (H-VRWFYE-OH; N-terminus and C-terminus assumed)"
  IC50 to ERβ: "None"

query: # query: IC50 to ERβ of entry C[C@H](N)C(=O)N[C@@H](CCCNC(=N)N)C(=O)N[C@@H](Cc1c[nH]c2ccccc12)C(=O)N[C@@H](Cc1ccccc1)C(=O)N[C@@H](Cc1ccccc1)C(=O)N[C@@H](CCC(=O)O)C(=O)O [Peptide A-43, ARWFFE] (H-ARWFFE-OH)
result: None
